- test.method.notes: Circular dichroism (CD) spectroscopy of linear and stapled peptides in water or 40% TFE/water (Example 3)
- Type: physicochemical
- applied.conditions: in 40% TFE/water
Bridges are numbered along the chain shown (N, C = ends).
measured.endpoint: [0]222/[0]208 ratio of ellipticities
Numbers only.

Ac-(cyclo-5,9)-VSKL[KSQLE]KRKQN-NH2 (Ac-VSKLKSQLEKRKQN-NH2; lactam 5-9; SMILES CC(=O)N[C@H](C(=O)N[C@@H](CO)C(=O)N[C@@H](CCCCN)C(=O)N[C@@H](CC(C)C)C(=O)N[C@H]1CCCCNC(=O)CC[C@@H](C(=O)N[C@@H](CCCCN)C(=O)N[C@@H](CCCNC(=N)N)C(=O)N[C@@H](CCCCN)C(=O)N[C@@H](CCC(N)=O)C(=O)N[C@@H](CC(N)=O)C(N)=O)NC(=O)[C@H](CC(C)C)NC(=O)[C@H](CCC(N)=O)NC(=O)[C@H](CO)NC1=O)C(C)C) [Compound 154] ... 0.75
Ac-VSKLRSQLVKRKQN-NH2 [Compound 132] ... 0.72
Ac-(cyclo-7,11)-VSKLRS[ELVKK]KQN-NH2 (Ac-VSKLRSELVKKKQN-NH2; lactam 7-11; SMILES CC(=O)N[C@H](C(=O)N[C@@H](CO)C(=O)N[C@@H](CCCCN)C(=O)N[C@@H](CC(C)C)C(=O)N[C@@H](CCCNC(=N)N)C(=O)N[C@@H](CO)C(=O)N[C@H]1CCC(=O)NCCCC[C@@H](C(=O)N[C@@H](CCCCN)C(=O)N[C@@H](CCC(N)=O)C(=O)N[C@@H](CC(N)=O)C(N)=O)NC(=O)[C@H](CCCCN)NC(=O)[C@H](C(C)C)NC(=O)[C@H](CC(C)C)NC1=O)C(C)C) [Compound 153] ... 0.74

Ask | Please look up its [0]222/[0]208 ratio of ellipticities: Ac-(cyclo-4,8)-NLK[EKIKK]VVKLKDE-NH2 (Ac-NLKEKIKKVVKLKDE-NH2; lactam 4-8; SMILES CC[C@H](C)[C@@H]1NC(=O)[C@H](CCCCN)NC(=O)[C@@H](NC(=O)[C@H](CCCCN)NC(=O)[C@H](CC(C)C)NC(=O)[C@H](CC(N)=O)NC(C)=O)CCC(=O)NCCCC[C@@H](C(=O)N[C@H](C(=O)N[C@H](C(=O)N[C@@H](CCCCN)C(=O)N[C@@H](CC(C)C)C(=O)N[C@@H](CCCCN)C(=O)N[C@@H](CC(=O)O)C(=O)N[C@@H](CCC(=O)O)C(N)=O)C(C)C)C(C)C)NC(=O)[C@H](CCCCN)NC1=O) [Compound 157]
Reply | 0.80

These measurements were taken from patent US10562935B2.
